Data credit: ChEMBL document CHEMBL1139414

Entries with their measured pKi, system Protein kinase C alpha type (Mus musculus):
pKi: −log10 of the molar value.
measured attribute: pKi

CC(CC(=O)OCC1(CO)C/C(=C/c2ccc(F)c(Cl)c2)C(=O)O1)CC(C)(C)C (racemic) | 7.65
O=C1OC(CO)(COC(=O)C(c2ccccc2)c2ccccc2)C/C1=C/c1cc(C(F)(F)F)cc(C(F)(F)F)c1 (racemic) | 7.10
CCCCC(CC)C(=O)OCC1(CO)C/C(=C/c2ccc(-c3ccc(C(F)(F)F)cc3)cc2)C(=O)O1 (racemic) | 7.56

P: COc1ccc(/C=C2/CC(CO)(COC(=O)c3ccc(C(F)(F)F)cc3)OC2=O)cc1 (racemic)
Q: CCCCC(/C=C1/CC(CO)(COC(=O)C(CC)CCCC)OC1=O)CC (racemic)
R: CN(C)c1ccc(C(=O)OCC2(CO)C/C(=C/C3CCCCC3)C(=O)O2)cc1 (racemic)
S: CC(C)(C)CC(=O)OCC1(CO)C/C(=C/c2ccc(OC(F)(F)F)cc2)C(=O)O1 (racemic)
T: COc1ccc(/C=C2\CC(CO)(COC(=O)c3c(C)cc(C)cc3C)OC2=O)cc1 (racemic; form 1)
List items by pKi in falling order. Use the labels to give the requested order.
T, S, Q, P, R
